- Tested on: MCF7/ADVP3000
- test: MTT cytotoxicity/reversal assay (Example 2)
- Format: cell-based
- measurement.parameters: read-out: IC50 of cisplatin, alone
quantity.kind: IC50 (µM)

# molecule, result.units, observed.result
data = [
    ("N.N.[Cl][Pt][Cl] [Cisplatin, cisplatin]", "µM", 31.1),
]

---

- Test system: KB-C2
- test: MTT cytotoxicity/reversal assay (Example 2)
- Assay type: cell-based, human
- measurement.parameters: read-out: IC50 of cisplatin, alone
pIC50: −log10 of the molar value.

# compound, pIC50
data = [
    ("N.N.[Cl][Pt][Cl] [Cisplatin, cisplatin]", 5.76),
]
